Assay: in vitro
Details: human, hela cells, % viability
Measured viability at 28.5 h, 10 µM by item
Please give a number only; it is taken to be in %.

Form field: reported viability at 28.5 h, 10 µM of `O=c1[nH]c2c(cc1CNc1cccc(O)c1)c(-c1cccc(F)c1)nn2-c1ccccc1` 93

Can you handle `CCc1nnc(NS(=O)(=O)c2ccc(Nc3ccc4nonc4c3[N+](=O)[O-])cc2)s1` next? 98

Can you handle `CSCCN1CCC(C(=O)c2ccc(F)cc2)CC1` next? 89.4

Can you handle `Cc1cccnc1NC(=O)c1c(O)c2ccccc2n(C)c1=O` next? 96

Can you handle Cc1cccc(OCC(=O)N2CCN(Cc3ccccn3)CC2)c1 [CBK134023G] next? 92.3

Can you handle O=C(CCn1cccn1)NCC1CCCOC1 (centres unmarked) next? 110

Can you handle `CC(=O)NCC(=O)N1CCC[C@@H]2[C@H]1CCCCc1ccccc1OCC(=O)N2C` next? 117

Can you handle `O=C(Cc1ccccc1Oc1ccccc1)Nc1cnc(-c2ccc(F)cc2)c(-c2ccco2)n1` next? 92.6

Can you handle `Clc1ccc(COc2ccnc(N3CCCN(CCN4CCOCC4)CC3)n2)cc1Cl` next? 97.8

Can you handle `Cc1ccc(CN(Cc2c[nH]cn2)C2CC(C)(C)NC(C)(C)C2)o1` next? 91

Further cases:
Form field: reported viability at 28.5 h, 10 µM of `CC(=O)c1cccc(NC(=O)c2cc(S(=O)(=O)N(C)C)ccc2Cl)c1` 111

Can you handle `COc1ccc(Oc2cc(Cl)nc(N)n2)cc1` next? 101

###

Measured viability at 28.5 h, 10 µM by item
Assay: in vitro
Settings: human, hela cells, % viability
Please give a number only; it is taken to be in %.

Check out these entries, answers already filled in.
Form field: reported viability at 28.5 h, 10 µM of `O=C(Nc1ccc2nc(-c3ccc(-c4nc5ccc(NC(=O)c6cccs6)cc5[nH]4)cc3)[nH]c2c1)c1cccs1` 87.1

Can you handle COc1ccc(C(NC(=O)c2ccc(C(C)N3CCOCC3)o2)c2ccccc2)cc1 (stereo not drawn) next? 112

Next molecule, viability at 28.5 h, 10 µM to be filled in.
Form field: reported viability at 28.5 h, 10 µM of `Cc1ccc(C(=O)Nc2ccc(N3CCCCC3)c(F)c2)c(=O)n1C` 89.5

###

Assay: in vitro
Settings: human, hela cells, % viability
Cut-off 90% on viability at 28.5 h, 10 µM: below means criterion met, at or above means criterion not met.

Below are worked cases with known answers.
Given the entry CN(C(=O)Cn1cccc(C(=O)NCC(C)(C)c2ccc(F)cc2)c1=O)C1CCCCC1 [CBK286112] , would its reported viability at 28.5 h, 10 µM be below 90%? criterion not met

Can you handle CC(=O)NCCSc1cc(NC(C)C)ncn1 [CBK105293] next? criterion not met

Can you handle CN(CC(=O)O)c1ccccc1C(=O)O [CBK260996] next? criterion not met

Further cases:
Given the entry CC(=O)c1ccc(-c2cc(F)cc3c2OC(CN)C3)s1 (stereo not drawn) [CBK307513] , would its reported viability at 28.5 h, 10 µM be below 90%? criterion met

Can you handle O=S(=O)(Nc1ccc2nsnc2c1)c1ccc(Br)cc1C(F)(F)F [CBK062233] next? criterion not met

###

Test: in vitro
Conditions: human, hela cells, % viability
QUANTITY_NAME: viability at 28.5 h, 10 µM (%)
Please give a number only; it is taken to be in %.

Check out these entries, answers already filled in.
Form field: reported viability at 28.5 h, 10 µM of `COc1ccccc1/C=C/CN(C)CCN(C)C` 88.5

Can you handle O=C(CC1C(=O)N(c2ccccc2)C(=S)N1NC(=O)c1ccccn1)Nc1ccc(Cl)cc1 (stereo not shown) next? 92.2

Can you handle `O=C1NCC2(C/C=C/CCOc3ccccc31)CCN(C(=O)CCN1CCCC1)CC2` next? 87.5

Next compound, viability at 28.5 h, 10 µM to be filled in.
Form field: reported viability at 28.5 h, 10 µM of `COc1ccc2[nH]cc(/C=C3\C(=O)Nc4ncccc43)c2c1` 88.3

###

Assay: in vitro
Settings: human, hela cells, % viability
Measured viability at 28.5 h, 10 µM by item
Include the unit after the number when you answer.

Check out these entries, answers already filled in.
Form field: reported viability at 28.5 h, 10 µM of CN1C(=O)C2(CC(=O)N(CCC3CCCCC3)C2=O)c2cc(Cl)ccc21 (centres unmarked) [CBK075231] 92%

Can you handle O=C1NC2(CCCCC2)C(=O)N1c1ccc(F)cc1F [CBK281945] next? 111%

Can you handle CC(=O)Nc1cccc(OCC(=O)Nc2ccc(C)c(C)c2)c1 [CBK265429] next? 95.9%

Further cases:
Form field: reported viability at 28.5 h, 10 µM of COc1ccccc1CN(C)C(C)C(=O)Nc1ccc(NC(C)=O)cc1 (centres unmarked) [CBK305873] 100%

Can you handle CSc1ccccc1C(=O)Nc1nccs1 [CBK288225] next? 88.7%

###

Assay: in vitro
Details: human, hela cells, % viability
Cut-off 90% on viability at 28.5 h, 10 µM: below means rule met, at or above means rule not met.

Given the entry `COc1ccnc(N2CCCN(CC(N)=O)CC2)n1` , would its reported viability at 28.5 h, 10 µM be below 90%? rule met

Can you handle CC(C)(CN)CN(Cc1ccccc1C(F)(F)F)C(=O)Nc1c(F)cccc1F [CBK026822C] next? rule not met

Can you handle `O=C(NCc1cccnc1)/C(=N\O)c1ccccc1` next? rule not met

Can you handle O=C(O)c1ccc(C(=O)NC2CCN(CC(F)(F)F)C2=O)s1 (stereo not shown) next? rule not met

Consider now this further compound.
Given the entry `Fc1ccc(-c2cn(-c3cncnc3)nn2)c(F)c1` , would its reported viability at 28.5 h, 10 µM be below 90%? rule not met

###

Assay: in vitro
Details: human, hela cells, % viability
QUANTITY_NAME: viability at 28.5 h, 10 µM (%)
Please give a number only; it is taken to be in %.

Check out these entries, answers already filled in.
Form field: reported viability at 28.5 h, 10 µM of `O=C(Nc1ccc(OC(F)(F)F)cc1)c1cnc(-c2ccc(Cl)cc2)c(-c2ccco2)c1` 106

Can you handle CC(=O)c1cccc(NC(=O)N(CCO)C2CCCc3ccccc32)c1 (stereo not shown) next? 83

Further cases:
Form field: reported viability at 28.5 h, 10 µM of CC(Sc1ccccc1)C(=O)NC(C)(C)C (stereo not shown) 116

Can you handle `COC(=O)c1c(C)oc(C)c1S(=O)(=O)Nc1ccc(C(C)C)cc1` next? 88

Can you handle `O=C(NCc1ccc(F)cc1)c1ncoc1-c1cccs1` next? 91.7

Can you handle COc1ccc(C(NC(=O)Cc2cn3ccsc3n2)C2CC(O)C2)cn1 (stereo not shown) next? 82.2

Can you handle `O=C(O)/C=C/c1cccc(-c2cnc(N3CCOCC3)c3nccn23)c1` next? 104

Can you handle `CC(=O)Nc1cccc(-c2nccnc2NCc2ccc3c(c2)OCO3)c1` next? 97.1

Can you handle O=C(O)C1CCCN(C(=O)NCc2ccc3c(c2)OCO3)C1 (stereo not shown) next? 93.4

Can you handle O=C(O)c1ccc(CN2CCOCC2)o1 [CBK261426C] next? 90.7

Can you handle `COc1ccccc1OCCSc1nnnn1C1CCCCC1` next? 96.6

Can you handle `COc1ccc(C(=O)N[C@H]2CCN3C(=O)c4ccc(Cl)cc4NC(=O)[C@@H]3C2)cc1` next? 84.5

Can you handle `OCCc1ccc(Nc2cc(-c3ccco3)ncn2)cc1` next? 100

Can you handle `CCCN1CCc2c(sc3nc(SCC(=O)c4ccccc4)n(-c4ccccc4)c(=O)c23)C1` next? 109

Can you handle `COCC(=O)NC1CCN(CC2(c3ccc(C)cc3)CC2)CC1` next? 104

###

Assay: in vitro
Settings: human, hela cells, % viability
QUANTITY_NAME: viability at 28.5 h, 10 µM

Check out these entries, answers already filled in.
Form field: reported viability at 28.5 h, 10 µM of `Cc1nc([N+](=O)[O-])c(NCCO)n1Cc1ccccc1` 88.5%

Can you handle Cc1csc(N2CCN(CC(O)COCc3ccco3)CC2)n1 (centres unmarked) next? 98.5%

Can you handle CCC(CN1CCCC1)NC(=O)C1(c2ccccc2)CCOCC1 (centres unmarked) next? 96.6%

Can you handle `O=C(N[C@H]1CCN2C(=O)c3cc(-c4ccccc4F)ccc3NC(=O)[C@H]12)c1cnccn1` next? 84.7%

Can you handle COc1ccc(CCNC(=O)N(C)C2CCN(C)C2)cc1 (centres unmarked) next? 100%

Further cases:
Form field: reported viability at 28.5 h, 10 µM of `CC(=O)N1CCC2(CCCC[C@H]3CN(CC(=O)N(C)C)CC[C@@H]3NC(=O)CNC2=O)CC1` 94.6%
